Listing: MBC of selected compounds
Test system: clinical S. aureus isolate LMY48
Assay: MIC and MBC testing, broth microdilution
Assay type: cell-based, Staphylococcus aureus
Settings: Staphylococcus aureus; LMY48; read-out: MBC
Description: Furthermore, the MBC values of the compounds were detected. The minimum inhibitory concentration (MIC) of all synthesized compounds was tested by the broth microdilution method. In brief, compounds dissolved in DMSO were diluted twice continuously in a 96-well plate with MH broth. […]
// return numeric value only (unit: µg/mL, not printed)

Use the examples below as a reference point.
[H]/N=C(\N)NN=C1CCCc2cc(OCc3cc(F)ccc3F)ccc21 [Compound 1E] : 2
[H]/N=C(\N)NN=C1CCCc2cc(OCc3c(F)cccc3F)ccc21 [Compound 1F] : 16
[H]/N=C(\N)NN=C1CCCc2cc(OCc3cc(F)cc(F)c3)ccc21 [Compound 1G] : 2
[H]/N=C(\N)NN=C1CCCc2cc(OCCCCC)ccc21 [Compound 2B] : 2
[H]/N=C(\N)NN=C1CCCc2cc(OCC=C(C)C)ccc21 [Compound 2I] : 2

Which MBC reading was recorded for the compound [H]/N=C(\N)NN=C1CCCc2cc(OCc3cccc(F)c3)ccc21 [Compound 1B] ?
4

Consider the compound [H]/N=C(\N)NN=C1CCCc2cc(OCCCCCCCCCCC)ccc21 [Compound 2H] and give its measured MBC.
4

Please look up its MBC: CC(C)=CCC/C(C)=C/COc1ccc2c(c1)CCC/C2=N\NC(=N)N [Compound 2J]
8

Item under review: [H]/N=C(\N)NN=C1CCCc2cc(OCc3ccccc3Br)ccc21 [Compound 1Q] . Reported MBC?
2

This collection of values is drawn from paper PMC12250302.
